test system: SK-MEL-5; test: NCI tumour cell line growth inhibition, 48 h
The source made the active and inactive calls. No stated cut-off is given here; in the data, active = GI50 up to about 1.1 µM and inactive = higher.
Hello, when you answer, please use one of the following outcomes: active, inactive

Q) What is the recorded call for this compound in the test? `Cc1ccc(O)c(C(c2cc(C)ccc2O)c2cc([N+](=O)[O-])ccc2O)c1`
A) inactive

Q) What is the recorded call for this compound in the test? C[C@@H](CC(=O)OCc1ccccc1)OC1OC(COC(=O)C(C)(C)C)C(OC(=O)C(C)(C)C)C(OC(=O)C(C)(C)C)C1OC(=O)C(C)(C)C (stereo partly specified)
A) inactive

Q) What is the recorded call for this compound in the test? `CC(=O)N(CCN1C(=O)c2ccccc2C1=O)CCN1C(=O)c2ccccc2C1=O`
A) inactive

Q) What is the recorded call for this compound in the test? COc1ccc2c(c1)CN1C(=N2)CSC1c1ccccc1Cl (stereo unspecified)
A) inactive

Q) What is the recorded call for this compound in the test? O=C(O)CCCCCCCCC(=O)O [SEBACIC ACID]
A) inactive

Q) What is the recorded call for this compound in the test? COc1ccc(C2C3=C(COC3=O)Oc3cc4c(cc32)OCO4)cc1OC (stereo unspecified)
A) active
